# protocol_text: Azelastine hydrate production-suppressing effect of each of the additives (azelastine hydrochloride solutions, pH 8)
# Format: physicochemical
# Set-up: key: absolutely no hydrate formation; .largecircle.: absolutely no hydrate formation; Δ: hydrate formation decreased compared to the produced water; X: no hydrate production-suppressing effect
# setup_conditions: amount added 0.5%; 0.3 g azelastine hydrochloride in 100 ml, pH 8
# Procedure: The azelastine hydrate production-suppressing effect was tested for each of the additives in azelastine hydro-chloride solutions. Each of the additives were added to 0.3 g of azelastine hydrochloride, the pH was adjusted to 8 with sodium hydroxide, and purified water was added to a total volume of 100 ml to determine whether or not azelastine hydrate crystals were produced. […]
property_measured: Effect Against Production of Azelastine Hydrates

Prompt line: # lookup: Effect Against Production of Azelastine Hydrates of CCCC(=O)O [Butyric Acid, reference compound]
Response line: X

Prompt line: Check CCCCC/C=C\C/C=C\CCCCCCCC(=O)O [Linolic Acid] too.
Response line: .largecircle.

Prompt line: Also CC/C=C\C/C=C\C/C=C\CCCCCCCC(=O)O [Linolenic Acid] , if possible.
Response line: .largecircle.

* * *

# protocol_text: Azelastine hydrate production-suppressing effect of each of the additives (azelastine hydrochloride solutions, pH 8)
# Format: physicochemical
# Design: key: absolutely no hydrate formation; .largecircle.: absolutely no hydrate formation; Δ: hydrate formation decreased compared to the produced water; X: no hydrate production-suppressing effect
# setup_conditions: amount added 0.5%; 0.3 g azelastine hydrochloride in 100 ml, pH 8
property_measured: Effect Against Production of Azelastine Hydrates

Prompt line: What value of Effect Against Production of Azelastine Hydrates has been recorded for this entry: CC(C)CCCCCCCCCCCCCCC(=O)O [Isostearic Acid]
Response line: .largecircle.

Prompt line: Also need CCCCCCCCCC(=O)O [Capric Acid] , thanks.
Response line: .largecircle.

Prompt line: CCCCCC(=O)O [Caproic Acid, reference compound] , same question.
Response line: X

Prompt line: Likewise for CCCCCCCCCCCCCCCCCC(=O)O [Stearic Acid] ?
Response line: .largecircle.

Prompt line: And what about the compound CCCCCCCC(=O)O [Caprylic Acid] ?
Response line: Δ

Further cases:
Prompt line: Fill in: Effect Against Production of Azelastine Hydrates of CC(=O)O [Acetic Acid, reference compound] is ___
Response line: X

Prompt line: Lookup CCCCCCCCCCCC(=O)O [Lauric Acid]
Response line: .largecircle.

Prompt line: Okay, and CCCCCCCCCCCCCCCCCCCCCC(=O)O [Behenic Acid] ?
Response line: .largecircle.

Prompt line: Next entry: CCCCCCCCCCCCCCCC(=O)O [Palmitic Acid]
Response line: .largecircle.

Prompt line: // repeat for CCCCCC/C=C\CCCCCCCC(=O)O [Palmitoleic Acid] and report
Response line: .largecircle.

Prompt line: Same for CCCCCCCCCCCCCC(=O)O [Myristic Acid]
Response line: .largecircle.

Prompt line: What do you have for CCCCCCCC/C=C\CCCCCCCCCCCC(=O)O [Erucid Acid] ?
Response line: .largecircle.
